Every entry's value here was drawn from PubChem BioAssay AID2551.

- MEASURED ON: Nuclear receptor ROR-gamma (Mus musculus) (UniProt P51450)
- Sequence (P51450 whole entry, looked up): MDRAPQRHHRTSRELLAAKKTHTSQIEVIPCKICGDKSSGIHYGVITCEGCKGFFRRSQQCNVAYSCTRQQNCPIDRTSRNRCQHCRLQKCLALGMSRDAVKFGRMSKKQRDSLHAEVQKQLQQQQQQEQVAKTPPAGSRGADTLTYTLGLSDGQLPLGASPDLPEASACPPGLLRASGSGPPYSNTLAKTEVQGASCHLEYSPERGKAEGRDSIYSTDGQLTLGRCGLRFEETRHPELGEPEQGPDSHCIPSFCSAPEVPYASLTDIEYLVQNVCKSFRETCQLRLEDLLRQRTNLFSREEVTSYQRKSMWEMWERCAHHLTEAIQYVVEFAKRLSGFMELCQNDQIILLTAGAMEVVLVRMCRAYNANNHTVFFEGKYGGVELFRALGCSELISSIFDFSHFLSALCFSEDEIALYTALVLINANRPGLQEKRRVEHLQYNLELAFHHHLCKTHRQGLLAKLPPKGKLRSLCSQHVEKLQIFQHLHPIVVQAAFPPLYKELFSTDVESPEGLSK
- MEASUREMENT PROTOCOL: qHTS for inhibitors of ROR gamma transcriptional activity; also: nearly all actives have a fitted effect of over 60% in size
- MEASUREMENT CONTEXT: Drosophila S2 Gal4-RORgamma UAS-luciferase reporter, 20 h; series mostly up to 53.6 µM
Screen size: about 310,000 compounds; about 17,000 (5.5%) were called active. Roughly 11% stayed inconclusive and do not appear here. Calls follow the shape of the dose curve; as a rule, active = well fitted inhibition curve with a large enough effect; inconclusive = small, poorly fitted or top-dose-only effect, or effect the other way; inactive = no such curve, though single readings can be large or run the other way. This is one part of a sample in which actives are shown more often than they occur.
The categories you may choose from are 1.0 for active, 0.0 for inactive

// query // return assay outcome for Nc1nonc1-n1nnc(C(=O)N/N=C/c2cc(Br)ccc2O)c1CSC1=NCCS1
// result 1.0

// query // return assay outcome for Cc1nn(C)cc1CNC(=O)Nc1ccc(Cl)cc1
// result 0.0

// query // return assay outcome for Fc1ccc(-c2ccc(CNCc3ccccn3)o2)cc1Cl
// result 1.0

// query // return assay outcome for O=S(=O)(c1ccc(Cl)s1)N1CCC2(CC1)OCCO2
// result 0.0

----------
- MEASURED ON: Nuclear receptor ROR-gamma (Mus musculus) (UniProt P51450)
- MEASUREMENT PROTOCOL: qHTS for inhibitors of ROR gamma transcriptional activity; also: nearly all actives have a fitted effect of over 60% in size
- MEASUREMENT CONTEXT: Drosophila S2 Gal4-RORgamma UAS-luciferase reporter, 20 h; series mostly up to 53.6 µM
Among all 310,000 compounds or so, about 17,000 (5.5%) were called active. Another 11% or so got no clear call; they are omitted. Calls come from the whole dose curve; as a rule, active = well fitted inhibition curve with a large enough effect; inconclusive = small, poorly fitted or top-dose-only effect, or effect the other way; inactive = no such curve, though single readings can be large or run the other way. The list comes from a sample in which actives are over-represented; it also holds close analogues and randomly drawn compounds.
The categories you may choose from are active, inactive

// query // return assay outcome for Cc1ccc(/C=N/NC(=O)Cn2nc(C)c(Br)c2C)o1
// result inactive

// query // return assay outcome for CCOc1cc(N2CCOCC2)c(OCC)cc1NC(=O)COc1cccc2cccnc12
// result inactive

// query // return assay outcome for O=C(NCCS(=O)(=O)N1CCN(c2ccccc2F)CC1)c1ccc(Br)o1
// result inactive

// query // return assay outcome for C=CCSc1nc2c(c(=O)[nH]c(=O)n2C)n1Cc1ccccc1
// result inactive

// query // return assay outcome for Cc1cc(=O)oc2c(C)c(OC(C)C(=O)NC3CCN(Cc4ccccc4)CC3)ccc12 (configuration not stated)
// result inactive

// query // return assay outcome for COc1cc(SC)ccc1C(=O)Nc1nc(C)cs1
// result active

// query // return assay outcome for CCOC(=O)CSc1nc2ccc(C)cc2n2cnnc12
// result inactive

// query // return assay outcome for C/C(=N/NC(=O)c1ccc(Br)o1)c1ccc(C)o1
// result inactive

// query // return assay outcome for O=C(Nc1ccc(S(=O)(=O)N2CCCCC2)cc1)C1CC(=O)N(c2ccc(F)cc2)C1 (configuration not stated)
// result inactive

// query // return assay outcome for Cc1ccc(/C=N/NC(=S)NC2CCCCC2)o1
// result active

// query // return assay outcome for Oc1c(C(c2ccccn2)N2CCOCC2)ccc2cccnc12 (configuration not stated)
// result active

// query // return assay outcome for CCN1N=C(c2ccccc2)CCC1=O
// result inactive

----------
- MEASURED ON: Nuclear receptor ROR-gamma (Mus musculus)
- MEASUREMENT PROTOCOL: qHTS for inhibitors of ROR gamma transcriptional activity; also: nearly all actives have a fitted effect of over 60% in size
- MEASUREMENT CONTEXT: Drosophila S2 Gal4-RORgamma UAS-luciferase reporter, 20 h; series mostly up to 53.6 µM
In all, about 310,000 compounds went through this assay and about 17,000 (5.5%) were called active. Another 11% or so got no clear call; they are omitted. Calls come from the whole dose curve; as a rule, active = well fitted inhibition curve with a large enough effect; inconclusive = small, poorly fitted or top-dose-only effect, or effect the other way; inactive = no such curve, though single readings can be large or run the other way. For the sample, actives were picked, then their nearest neighbours and some compounds at random.
The categories you may choose from are y for active, n for inactive

// query // return assay outcome for CCc1c(C)nc(SCC(=O)NC2CCCC2)[nH]c1=O
// result n

// query // return assay outcome for CCCC(=O)N1CCN(c2nnc(-c3ccc(C)cc3)c3ccccc23)CC1
// result n

// query // return assay outcome for CCNC(=O)CCc1nc(-c2ccc(C)cc2)no1
// result n

// query // return assay outcome for Cc1nc2nc(C)c(NS(=O)(=O)c3ccc(C(C)(C)C)cc3)c(=O)n2[nH]1
// result n

// query // return assay outcome for Cc1ccc(C(=O)N2CCC(n3nccc3NC(=O)Nc3cccc(F)c3)CC2)cn1
// result n

// query // return assay outcome for O=C1C(=O)N(CC2COc3ccccc3O2)c2ccccc21 (configuration not stated)
// result n

// query // return assay outcome for COc1cc(OC)cc(C(=O)Nc2nnc(SCC(=O)NCC3CCCO3)s2)c1 (configuration not stated)
// result n

// query // return assay outcome for COc1ccc(OC)c(C2C3=C(N=c4s/c(=C\c5cccc(O)c5)c(=O)n42)c2ccccc2CC3)c1 (configuration not stated)
// result y

// query // return assay outcome for CC(=O)Nc1ccc(NC(=O)CCCNC(=O)c2ccc(Cl)cc2)cc1
// result n

// query // return assay outcome for Oc1ccccc1C1=NN(c2ccccc2)C(c2ccccc2)C1 (configuration not stated)
// result n

// query // return assay outcome for COc1ccc(C(CNC(=O)COc2ccc([N+](=O)[O-])cc2)N2CCCCC2)cc1 (configuration not stated)
// result n

// query // return assay outcome for COc1ccc(C(=O)N2CCCCC2C(=O)Nc2ccc(-n3nc(C)cc3C)cc2)o1 (configuration not stated)
// result n

// query // return assay outcome for CNC[C@H](CC1CCCCC1)NC[C@H](NCCC1CCCC1)[C@H](C)O
// result n

// query // return assay outcome for Cc1ccc2c(c1)N(S(=O)(=O)c1cc(-c3cc(C)no3)ccc1C)CCO2
// result n

// query // return assay outcome for CC(C)(COC(=O)Nc1ccccc1)COC(=O)Nc1ccccc1
// result n

// query // return assay outcome for COc1ccc(/C=N/OCc2ccccc2C#N)c(OC)c1
// result n

// query // return assay outcome for COc1cc(NS(=O)(=O)c2ccc(NC(C)=O)cc2)cc(OC)c1
// result n
